Experiment: Cytotoxicity against mouse RAW264.7 cells assessed as induction of cell killing incubated for 24 hrs by alamar blue dye based fluorescence analysis
Details: read-out: ED50
Assign CC50 at 24 h to each entry below.

Ask: Fill in the blank: the reported CC50 at 24 h of CC1(C)CC[C@]2(C(=O)O)CC[C@]3(C)C(=CC[C@@H]4[C@@]5(C)CC[C@H](O)[C@@](C)(C=O)[C@@H]5CC[C@]43C)[C@@H]2C1 is ____.
Reply: 36.6 µM

Ask: Sample CC1(C)CC[C@]2(NC(=O)N3CCC[C@H]3C(=O)O)CC[C@]3(C)C(=CC[C@@H]4[C@@]5(C)CC[C@@H]6OC(C)(C)OC[C@@]6(C)[C@@H]5CC[C@]43C)[C@@H]2C1 — what was its CC50 at 24 h?
Reply: 5.4 µM

Ask: # CC50 at 24 h lookup, item CC1(C)CC[C@]2(C(=O)O)CC[C@]3(C)C(=CC[C@@H]4[C@@]5(C)CC[C@H](OC(=O)CCC(=O)O)[C@@](C)(COC(=O)CCC(=O)O)[C@@H]5CC[C@]43C)[C@@H]2C1
Reply: > 100 µM

Ask: Query: CC50 at 24 h; subject: COC(=O)[C@]12CCC(C)(C)C[C@H]1C1=CC[C@@H]3[C@@]4(C)CC[C@@H]5O[C@H]([C@H](O)[C@@H](O)[C@H](O)[C@H](O)CO)OC[C@@]5(C)[C@@H]4CC[C@@]3(C)[C@]1(C)CC2
Reply: 10.2 µM

Ask: Suppose we examine the molecule CC1(C)CC[C@]2(C(=O)O)CC[C@]3(C)C(=CC[C@@H]4[C@@]5(C)CC[C@@H]6O[C@H](C[C@H]7O[C@H](CO)[C@@H](O)[C@H](O)[C@H]7O)OC[C@@]6(C)[C@@H]5CC[C@]43C)[C@@H]2C1 ; what CC50 at 24 h value has been reported?
Reply: 36.7 µM

Ask: Would you kindly share the measured CC50 at 24 h for CC1(C)CC[C@]2(C(=O)O)CC[C@]3(C)C(=CC[C@@H]4[C@@]5(C)CC[C@@H]6O[C@H]([C@H](O)[C@@H](O)[C@H](O)CO)OC[C@@]6(C)[C@@H]5CC[C@]43C)[C@@H]2C1 ?
Reply: 29.2 µM

Ask: Which value of CC50 at 24 h has been reported for CC1(C)CC[C@]2(C(=O)O)CC[C@]3(C)C(=CC[C@@H]4[C@@]5(C)CC[C@@H]6O[C@H]([C@H](O)[C@@H](O)[C@H](O)[C@H](O)CO)OC[C@@]6(C)[C@@H]5CC[C@]43C)[C@@H]2C1 in the records?
Reply: 29.6 µM

Ask: Which measured CC50 at 24 h value corresponds to CO[C@H]1O[C@H]([C@@H]2OC[C@@]3(C)[C@@H]4CC[C@]5(C)[C@H](CC=C6[C@@H]7CC(C)(C)CC[C@]7(C(=O)O)CC[C@]65C)[C@@]4(C)CC[C@@H]3O2)[C@@H](O)[C@H](O)[C@H]1O ?
Reply: 29.7 µM

Ask: Please give the measured CC50 at 24 h for this molecule: COC(=O)[C@]12CCC(C)(C)C[C@H]1C1=CC[C@@H]3[C@@]4(C)CC[C@@H]5O[C@H](c6ccccc6C(=O)O)OC[C@@]5(C)[C@@H]4CC[C@@]3(C)[C@]1(C)CC2
Reply: 4.8 µM
